Test system: HepG2
experiment.description: Assay for anticancer activity, cell viability (Cell Counting Kit-8)
Type: cell-based
measurement.parameters: HepG2 cells, 10 μM compound, 3 days
Counter-ions that a name gives are not always drawn.
The following compounds are shown together with reported Cell viability (% of Con. 10 μM) HepG2 values.

compound | Cell viability (% of Con. 10 μM) HepG2
O=C(NCc1ccncc1)c1n[nH]c2ccc(-c3cccnc3F)cc12 [Compound 51] | 37 % of Con.
O=C(Nc1ccncc1)c1n[nH]c2ccc(-c3ccc(N4CCNCC4)cc3)cc12 [Compound 46, hydrochloride] | 46 % of Con.
O=C(Nc1ccc2c(c1)CNCC2)c1n[nH]c2ccc(-c3cccnc3F)cc12 [Compound 55, hydrochloride] | 12 % of Con.
CC1NCCc2ccc(NC(=O)c3n[nH]c4ccc(-c5cccnc5F)cc34)cc21 (stereo not drawn) [Compound 63] | 7 % of Con.
O=C(Nc1ccncc1)c1n[nH]c2ccc(-c3cccnc3F)cc12 [Compound 17] | 15 % of Con.
O=C(Nc1ccncc1)c1n[nH]c2ccc(-c3ccoc3)cc12 [Compound 34] | 49 % of Con.
O=C(Nc1ccncc1)c1n[nH]c2ccc(-c3cn[nH]c3)cc12 [Compound 26] | 24 % of Con.
O=Cc1cc2c(cc1-c1ccc3[nH]nc(C(=O)Nc4ccncc4)c3c1)OCO2 [Compound 52] | 32 % of Con.
O=C(Nc1ccncc1)c1nn(C2CCCCO2)c2ccc(-c3cccnc3F)cc12 (stereo not drawn) [Compound 66] | 11 % of Con.
CCCn1cc(-c2ccc3[nH]nc(C(=O)Nc4ccncc4)c3c2)cn1 [Compound 36] | 15 % of Con.
O=C(Nc1ccc2c(c1)CN(C(=O)C(F)(F)F)CC2)c1nn(C2CCCCO2)c2ccc(-c3cccnc3F)cc12 (stereo not drawn) [Compound 53] | 10 % of Con.
CC1(C)NCCc2ccc(NC(=O)c3n[nH]c4ccc(-c5cccnc5F)cc34)cc21 [Compound 59] | 6 % of Con.
